assayedSystem: human serum albumin (human, UniProt P02768 25-609)
experiment: ITC

{"binder": "GGSGSG [6-amino acid linker GGSGSG]", "Kd (µM)": 805}
